Values from patent US12077503B2

Test system: giant foxtail (Setaria faberi)
ASSAY SUMMARY: Test G Pre-Emergence Protocol
Type: in vivo
CONDITIONS: Setaria faberi, pre-emergence, 312 h, 15.625 g ai/ha, evaluated after 13 days, read-out: Foxtail, Giant damage rating (100=total damage to plant; 0=no damage to plant)
READOUT: pest or weed control at 15.625 g/ha (%)
Dear colleague, please return just the value in %, with no unit written.

Consider the reported pest or weed control at 15.625 g/ha for these compounds:
[[record]]
compound = "Cc1ccc([C@@H]2CN(C)C(=O)[C@H]2C(=O)Nc2cccc(F)c2F)cc1Cl (racemic)"
readout = "pest or weed control at 15.625 g/ha"
unit_tag = "%"
result = 70

[[record]]
compound = "CN1C[C@H](c2ccc(C(F)(F)F)cc2)[C@@H](C(=O)Nc2cccnc2F)C1=O"
readout = "pest or weed control at 15.625 g/ha"
unit_tag = "%"
result = 90

[[record]]
compound = "CN1C[C@@H](c2ccc(C(F)(F)F)cc2)[C@H](C(=O)Nc2ccnc(Cl)c2Cl)C1=O (racemic)"
readout = "pest or weed control at 15.625 g/ha"
unit_tag = "%"
result = 0

[[record]]
compound = "CN1C[C@H](c2ccc(C(F)(F)F)cc2)[C@@H](C(=O)Nc2cccc3c2C(=O)OC3)C1=O (racemic)"
readout = "pest or weed control at 15.625 g/ha"
unit_tag = "%"
result = 0


Enquiry: Field request: pest or weed control at 15.625 g/ha | item: Cc1cc(NC(=O)[C@@H]2C(=O)N(C)C[C@H]2c2ccc(C(F)(F)F)cc2)on1 (racemic)
Return: 0

----------
Test system: pigweed (Amaranthus retroflexus)
ASSAY SUMMARY: Test A postemergence
Assay type: in vivo
CONDITIONS: Amaranthus retroflexus, post-emergence, 240 h, Postemergence, 500 g ai/ha; visual injury, 0 to 100 scale (0 no effect, 100 complete control), approx. 10 d; read-out: Plant response rating, Pigweed
Examples of molecules with documented pest or weed control at 500 g/ha follow.
Report as a plain number; the unit % is understood.

Enquiry: Can you look up the measured pest or weed control at 500 g/ha of O=C1NCC(c2ccccc2)C1C(=O)Nc1cc(F)ccc1F (stereo not shown) for me?
Return: 0

Enquiry: Field request: pest or weed control at 500 g/ha | item: O=C1NC[C@H](c2cncs2)[C@H]1C(=O)Nc1ccccc1F
Return: 0

Enquiry: Return reported pest or weed control at 500 g/ha; argument: COc1cc([C@H]2CN(C)C(=O)[C@@H]2C(=O)Nc2ccccc2S(C)(=O)=O)ccc1F
Return: 0

Enquiry: Which pest or weed control at 500 g/ha value is on record for Cc1cc([C@H]2CNC(=O)[C@@H]2C(=O)Nc2ccccc2S(C)(=O)=O)ccc1Cl ?
Return: 20

Enquiry: Form field: reported pest or weed control at 500 g/ha of CN1C[C@H](c2ccc(C(F)(F)F)cc2)[C@@H](C(=O)Nc2cccc(C#N)c2F)C1=O
Return: 70

Enquiry: Sample CSc1ccccc1NC(=O)[C@H]1C(=O)NC[C@@H]1c1cc(C)cc(F)c1 — what was its pest or weed control at 500 g/ha?
Return: 0

Enquiry: Need pest or weed control at 500 g/ha of O=C1NC[C@H](c2cncs2)[C@H]1C(=O)Nc1cccc(F)c1F , thanks.
Return: 0

----------
Test system: blackgrass (Alopecurus myosuroides)
ASSAY SUMMARY: Test C preemergence
Assay type: in vivo
CONDITIONS: 62 g ai/ha, scale 0 to 100, 0 no effect, 100 complete control
The compounds listed here are annotated with their Plant response rating, Blackgrass.
Form rule: numeric answer, no unit written next to it.

Examples with their reported Plant response rating, Blackgrass follow.
[[record]]
compound = "CC(C)Oc1cccc(C2CN(C)C(=O)C2C(=O)Nc2cccc(F)c2F)c1 (centres unmarked)"
result = 45

[[record]]
compound = "CN1CC(c2cccc(OC(F)(F)C(F)F)c2)C(C(=O)Nc2cccc(F)c2F)C1=O (centres unmarked)"
result = 45

[[record]]
compound = "Cc1ccc(C2CN(C)C(=O)C2C(=O)Nc2ccccc2C(F)(F)F)cc1 (centres unmarked)"
result = 60

[[record]]
compound = "CN1CC(c2ccc(C(F)(F)F)c(F)c2)C(C(=O)Nc2ccccc2F)C1=O (centres unmarked)"
result = 80


Let us move to another entry and its Plant response rating, Blackgrass.
Enquiry: Entry O=C1NCC(c2ccc(Br)cc2)C1C(=O)Nc1cccc(F)c1F (centres unmarked) has what Plant response rating, Blackgrass?
Return: 0

----------
Tested on: corn (Zea mays)
ASSAY SUMMARY: Test G Post-Emergence Protocol
Assay type: in vivo
CONDITIONS: Zea mays, post-emergence, 312 h, 15.625 g ai/ha, evaluated after 13 days (100=total damage to plant; 0=no damage to plant), read-out: Corn damage rating
plant injury at 15.625 g/ha reference
Quick reminder: number only, in %, skip the unit.

// solved cases for plant injury at 15.625 g/ha follow
[[record]]
compound = "CSc1ccncc1NC(=O)[C@H]1C(=O)N(C)C[C@@H]1c1cccc(C(F)(F)F)c1 (racemic)"
result = 0

[[record]]
compound = "COc1cccc(NC(=O)[C@H]2C(=O)N(C)C[C@@H]2c2ccc(C(F)(F)F)cc2)c1C (racemic)"
result = 0

[[record]]
compound = "CN1C[C@@H](c2ccc(C(F)(F)F)cc2)[C@H](C(=O)Nc2cccc(C(F)(F)F)c2[N+](=O)[O-])C1=O (racemic)"
result = 0

[[record]]
compound = "CN1C[C@@H](c2ccc(C(F)(F)F)cc2)[C@H](C(=O)Nc2nnc(C(F)(F)F)[nH]2)C1=O (racemic)"
result = 0

[[record]]
compound = "CN1C[C@H](c2ccc(C(F)(F)F)cc2)[C@@H](C(=O)Nc2cncnc2Cl)C1=O (racemic)"
result = 0

[[record]]
compound = "CN1C[C@H](c2ccc(C(F)(F)F)cc2)[C@@H](C(=O)Nc2cnccc2O)C1=O (racemic)"
result = 0

[[record]]
compound = "CN1C[C@@H](c2ccc(C(F)(F)F)cc2)[C@H](C(=O)Nc2ccnc(Cl)c2)C1=O (racemic)"
result = 0

[[record]]
compound = "Cc1nccc(NC(=O)[C@@H]2C(=O)N(C)C[C@H]2c2ccc(C(F)(F)F)cc2)n1 (racemic)"
result = 0

[[record]]
compound = "COc1cc(F)cc(C2CN(C)C(=O)C2C(=O)Nc2cccc(F)c2F)c1 (centres unmarked)"
result = 0

[[record]]
compound = "CN1C[C@H](c2ccc(C(F)(F)F)cc2)[C@@H](C(=O)Nc2ccc(F)c(F)c2)C1=O (racemic)"
result = 20


Enquiry: Request the reported plant injury at 15.625 g/ha associated with CN1C[C@H](c2ccc(C(F)(F)F)cc2)[C@@H](C(=O)Nc2ncc(F)cc2F)C1=O (racemic)
Return: 0

Enquiry: I am curious: what plant injury at 15.625 g/ha value has been reported for CN1C[C@H](c2ccc(C(F)F)cc2)[C@@H](C(=O)Nc2ccccc2F)C1=O (racemic) ?
Return: 10

Enquiry: Please look up its plant injury at 15.625 g/ha: COc1cc(C)cc([C@@H]2CN(C)C(=O)[C@H]2C(=O)Nc2cccc(F)c2C)c1 (racemic)
Return: 30

Enquiry: Entry CN1C[C@@H](c2cccc(Oc3ccc(F)cc3)c2)[C@H](C(=O)Nc2cccc(F)n2)C1=O (racemic) has what plant injury at 15.625 g/ha?
Return: 20

----------
Test system: velvetleaf (Abutilon theophrasti)
ASSAY SUMMARY: Test G Post-Emergence Protocol
Format: in vivo
CONDITIONS: Abutilon theophrasti, post-emergence, 312 h, 62.5 g ai/ha, evaluated after 13 days, 100=total damage to plant, 0=no damage to plant, read-out: Velvetleaf damage rating
Text: Seeds of corn (Zea mays), giant foxtail (Setaria faberi), barnyardgrass (Echinochloa crus-galli), ivy-leaved morning glory (Ipomoea hederacea), redroot pigweed (Amaranthus retroflexus) and velvetleaf (Abutilon theophrasti) were sown in standard soil in pots. […]
# reported pest or weed control at 62.5 g/ha; entries follow
Give your result in % as a bare value.

Check out these entries, answers already filled in.
[[record]]
compound = "Cc1c(F)cccc1NC(=O)[C@@H]1C(=O)N(C)C[C@H]1c1ccnc(OCC(F)(F)F)c1 (racemic)"
result = 40

[[record]]
compound = "CN1C[C@@H](c2cc(Br)cc(Oc3ccccc3)c2)[C@H](C(=O)Nc2cccc(F)c2F)C1=O (racemic)"
result = 10


# ---- query compound ----
Enquiry: Item Cc1c(F)cccc1NC(=O)[C@@H]1C(=O)N(C)C[C@H]1c1cccc(C(C)(C)F)c1 (racemic) has what recorded pest or weed control at 62.5 g/ha?
Return: 0

----------
Test system: corn (Zea mays)
ASSAY SUMMARY: Test A postemergence
Assay type: in vivo
CONDITIONS: Zea mays, post-emergence, 240 h, 125 g ai/ha, Postemergence; visual injury after approximately 10 d; 0 to 100 scale where 0 is no effect and 100 is complete control
# Corn plant response rating (crop injury, 0 = no effect, 100 = complete kill) at 125 g/ha per entry

[[record]]
molecule = "CN1C[C@H](c2csc(C(F)(F)F)c2)[C@@H](C(=O)Nc2cccc(F)c2F)C1=O [Compound 959]"
result = "30%"

[[record]]
molecule = "CS(=O)(=O)c1ccccc1NC(=O)[C@H]1C(=O)N(C2CC2)CC[C@@H]1c1cccc(C(F)(F)F)c1 [Compound 927]"
result = "0%"


Enquiry: Enter reported Corn plant response rating (crop injury, 0 = no effect, 100 = complete kill) at 125 g/ha observed with corn (Zea mays) for O=C1NC[C@H](c2cccc(C(F)(F)F)n2)[C@H]1C(=O)Nc1ccccc1F [Compound 940]
Return: 0%

Enquiry: Notebook entry, corn (Zea mays) assay: Corn plant response rating (crop injury, 0 = no effect, 100 = complete kill) at 125 g/ha of CN1C[C@H](c2cc(F)cc(C(F)(F)F)c2)[C@@H](C(=O)Nc2cccc(Cl)c2F)C1=O [Compound 995] = ?
Return: 30%
